Let's look at some compounds and their measured MIC.
- Tested on: colistin resistant MCR (+) E. Coli strains
- protocol-description: MIC, broth microdilution, compound alone
- Assay type: cell-based
- condition-label: strain 6083655967, MCR (+); compound alone
Report only the number, with the unit µg/mL understood.

Some entries whose results are on file:
{"compound": "CC(C)=CCc1c(OCCNCCN)ccc(C(=O)/C=C/c2ccc(OCCNCCN)cc2)c1O", "scale-unit": "µg/mL", "result": 6.25}
{"compound": "CC(C)=CCc1c(OCCCCN(CCCN(C)C)CCCN(C)C)ccc(C(=O)/C=C/c2ccc(OCCCCN(CCCN(C)C)CCCN(C)C)cc2)c1O", "scale-unit": "µg/mL", "result": 25}

Problem: Return reported MIC. Input compound: CC[N+](CC)(CC)CCCCOc1ccc(/C=C/C(=O)c2ccc(OCCCC[N+](CC)(CC)CC)c(CC=C(C)C)c2O)cc1
Solution: 6.25

Problem: Return reported MIC. Input compound: CC1(C)C=Cc2c(ccc3c2OCC(c2ccc(OCCCCC[N+](C)(C)C)cc2OCCCCC[N+](C)(C)C)C3)O1 (stereo not drawn)
Solution: 50

Problem: Return reported MIC. Input compound: CC1(C)C=Cc2c(ccc3c2OCC(c2ccc(OCCCC[n+]4ccccc4)cc2OCCCC[n+]2ccccc2)C3)O1 (stereo not drawn)
Solution: 50

* * *

Let's look at some compounds and their measured MIC.
- Test system: colistin resistant MCR (+) E. Coli strains
- protocol-description: MIC, broth microdilution, compound alone
- Format: cell-based
- condition-label: strain 7023436560, MCR (+); compound alone
Report only the number, with the unit µg/mL understood.

Some entries whose results are on file:
{"compound": "CC(C)=CCc1c(OCCCCC[N+](C)(C)C)ccc(C(=O)/C=C/c2ccc(OCCCCC[N+](C)(C)C)cc2)c1O [LC311]", "result": 3.125}
{"compound": "CC1(C)C=Cc2c(ccc3c2OCC(c2ccc(OCCCC[n+]4ccccc4)cc2OCCCC[n+]2ccccc2)C3)O1 (centres unmarked) [LC370]", "result": 50}
{"compound": "CC(C)=CCc1c(OCCC[N+](C)(C)C)ccc(C(=O)/C=C/c2ccc(OCCC[N+](C)(C)C)cc2)c1O [LC312]", "result": 6.25}
{"compound": "CC[N+](CC)(CC)CCCCOc1ccc(/C=C/C(=O)c2ccc(OCCCC[N+](CC)(CC)CC)c(CC=C(C)C)c2O)cc1 [LC315]", "result": 6.25}
{"compound": "Cc1cc(OCCCCN(Cc2ccccn2)Cc2ccccn2)cc(OCCCCN(Cc2ccccn2)Cc2ccccn2)c1.[Cl][Zn][Cl].[Cl][Zn][Cl] [Orc-DPA-Zn]", "result": 50}

Problem: Return reported MIC. Input compound: CCN(CC)CCCCOc1ccc(/C=C/C(=O)c2ccc(OCCCCN(CC)CC)c(CC=C(C)C)c2O)cc1 [LC100]
Solution: 100

Problem: Return reported MIC. Input compound: COC(=O)C(CCCNC(=N)N)NC(=O)COc1ccc(/C=C/C(=O)c2ccc(OCC(=O)NC(CCCNC(=N)N)C(=O)OC)c(CC=C(C)C)c2O)cc1 (centres unmarked) [LC101]
Solution: 25

Problem: Return reported MIC. Input compound: CC(C)=CCc1c(OCCCC[n+]2ccn(C)c2)ccc(C(=O)/C=C/c2ccc(OCCCC[n+]3ccn(C)c3)cc2)c1O [LC350]
Solution: 3.125

Problem: Return reported MIC. Input compound: CC(C)=CCc1c(OCCCC[n+]2ccccc2)ccc(C(=O)/C=C/c2ccc(OCCCC[n+]3ccccc3)cc2)c1O [LC365]
Solution: 3.125

Problem: Return reported MIC. Input compound: CN(C)CCCN(C)CCCCOc1ccc(C2COc3c(ccc4c3C=CC(C)(C)O4)C2)c(OCCCCN(C)CCCN(C)C)c1 (centres unmarked) [LC096]
Solution: 25

Problem: Return reported MIC. Input compound: CCN(CC)CCCCOc1ccc(C2COc3c(ccc4c3C=CC(C)(C)O4)C2)c(OCCCCN(CC)CC)c1 (centres unmarked) [LC105]
Solution: 25

Problem: Return reported MIC. Input compound: CC[N+](CC)(CC)CCCCOc1ccc(C2COc3c(ccc4c3C=CC(C)(C)O4)C2)c(OCCCC[N+](CC)(CC)CC)c1 (centres unmarked) [LC317]
Solution: 50

Problem: Return reported MIC. Input compound: CC(C)=CCc1c(OCCCCN(CCCN(C)C)CCCN(C)C)ccc(C(=O)/C=C/c2ccc(OCCCCN(CCCN(C)C)CCCN(C)C)cc2)c1O [LC097]
Solution: 12.5

Problem: Return reported MIC. Input compound: CN(C)CCCN(CCCCOc1ccc(C2COc3c(ccc4c3C=CC(C)(C)O4)C2)c(OCCCCN(CCCN(C)C)CCCN(C)C)c1)CCCN(C)C (centres unmarked) [LC095]
Solution: 25

Problem: Return reported MIC. Input compound: CC(C)=CCc1c(OCCCCN(C)CCCN(C)C)ccc(C(=O)/C=C/c2ccc(OCCCCN(C)CCCN(C)C)cc2)c1O [LC098]
Solution: 6.25

Problem: Return reported MIC. Input compound: CC1(C)C=Cc2c(ccc3c2OCC(c2ccc(OCCCCC[N+](C)(C)C)cc2OCCCCC[N+](C)(C)C)C3)O1 (centres unmarked) [LC316]
Solution: 50

* * *

- Test system: colistin resistant MCR (+) E. Coli strains
- protocol-description: MIC, broth microdilution, compound alone
- Assay type: cell-based
- condition-label: strain 7013177695, MCR (+); compound alone
Let's look at some compounds and their measured MIC.
Report only the number, with the unit µg/mL understood.

Some entries whose results are on file:
{"compound": "CC[N+](CC)(CC)CCCCOc1ccc(/C=C/C(=O)c2ccc(OCCCC[N+](CC)(CC)CC)c(CC=C(C)C)c2O)cc1", "tgt": "colistin resistant MCR (+) E. Coli strains", "MIC (µg/mL)": 12.5}
{"compound": "CC1(C)C=Cc2c(ccc3c2OCC(c2ccc(OCCCC[n+]4ccccc4)cc2OCCCC[n+]2ccccc2)C3)O1 (stereo not shown)", "tgt": "colistin resistant MCR (+) E. Coli strains", "MIC (µg/mL)": 50}
{"compound": "CC(C)=CCc1c(OCCCCC[N+](C)(C)C)ccc(C(=O)/C=C/c2ccc(OCCCCC[N+](C)(C)C)cc2)c1O", "tgt": "colistin resistant MCR (+) E. Coli strains", "MIC (µg/mL)": 6.25}

Consider now this further compound.
Problem: Return reported MIC. Input compound: CN(C)CCCN(C)CCCCOc1ccc(C2COc3c(ccc4c3C=CC(C)(C)O4)C2)c(OCCCCN(C)CCCN(C)C)c1 (stereo not shown)
Solution: 25

* * *

- Tested on: colistin resistant MCR (−) E. Coli strains
- protocol-description: MIC, broth microdilution, compound alone
- Type: cell-based
- condition-label: strain 7033607097, MCR (−)
metric-name: MIC (µg/mL)
Report only the number, with the unit µg/mL understood.

Some entries whose results are on file:
{"compound": "COC(=O)C(CCCNC(=N)N)NC(=O)COc1ccc(/C=C/C(=O)c2ccc(OCC(=O)NC(CCCNC(=N)N)C(=O)OC)c(CC=C(C)C)c2O)cc1 (stereo not drawn)", "MIC [µg/mL]": 50}
{"compound": "CC(C)=CCc1c(OCCCCN(CCCN(C)C)CCCN(C)C)ccc(C(=O)/C=C/c2ccc(OCCCCN(CCCN(C)C)CCCN(C)C)cc2)c1O", "MIC [µg/mL]": 12.5}
{"compound": "CC(C)=CCc1c(OCCC[N+](C)(C)C)ccc(C(=O)/C=C/c2ccc(OCCC[N+](C)(C)C)cc2)c1O", "MIC [µg/mL]": 12.5}
{"compound": "CN(C)CCCN(C)CCCCOc1ccc(C2COc3c(ccc4c3C=CC(C)(C)O4)C2)c(OCCCCN(C)CCCN(C)C)c1 (stereo not drawn)", "MIC [µg/mL]": 12.5}

Consider now this further compound.
Problem: Return reported MIC. Input compound: Cc1cc(OCCCCN(Cc2ccccn2)Cc2ccccn2)cc(OCCCCN(Cc2ccccn2)Cc2ccccn2)c1.[Cl][Zn][Cl].[Cl][Zn][Cl]
Solution: 50

* * *

- Tested on: colistin resistant MCR (+) E. Coli strains
- protocol-description: MIC, broth microdilution, compound alone
- Assay type: cell-based
- condition-label: strain 7023444207, MCR (+); compound alone
metric-name: MIC (mg/L)
Report only the number, with the unit mg/L understood.

{"molecule": "Cc1cc(OCCCCN(Cc2ccccn2)Cc2ccccn2)cc(OCCCCN(Cc2ccccn2)Cc2ccccn2)c1.[Cl][Zn][Cl].[Cl][Zn][Cl] [Orc-DPA-Zn]", "tgt": "colistin resistant MCR (+) E. Coli strains", "MIC (mg/L)": 50}

Problem: State the measured MIC (colistin resistant MCR (+) E. Coli strains) of CC(C)=CCc1c(OCCCC[n+]2ccn(C)c2)ccc(C(=O)/C=C/c2ccc(OCCCC[n+]3ccn(C)c3)cc2)c1O [LC350]
Solution: 3.125

Problem: State the measured MIC (colistin resistant MCR (+) E. Coli strains) of CC(C)=CCc1c(OCCC[N+](C)(C)C)ccc(C(=O)/C=C/c2ccc(OCCC[N+](C)(C)C)cc2)c1O [LC312]
Solution: 12.5

Problem: State the measured MIC (colistin resistant MCR (+) E. Coli strains) of CC(C)=CCc1c(OCCCC[n+]2ccccc2)ccc(C(=O)/C=C/c2ccc(OCCCC[n+]3ccccc3)cc2)c1O [LC365]
Solution: 3.125
